Tested on: U2OS
Assay: Multiplex assay against U2OS
Type: toxicity, cell-based
Conditions: human, 12 h, 1 µM, compound concentration 1 uM, replicate 2
EXPERIMENTAL_READOUT: Population Mitotic Cells (%)
Answer in %, number only, no unit symbol.

Request the reported Population Mitotic Cells (%) associated with CC(C)COc1ccc(CNC(=O)N(Cc2ccc(F)cc2)C2CCN(C)CC2)cc1 [PIMAVANSERIN]
0

Check COC[C@@H](c1ccc(C(F)(F)F)cc1)N1CCN(C2(C)CCN(C(=O)c3c(C)ncnc3C)CC2)C[C@@H]1C.O=C(O)/C=C\C(=O)O [VICRIVIROC MALEATE] too.
18

Check Cc1cnc(-c2cc(N3CCN(C(=O)CCS(C)(=O)=O)CC3)ncc2Cl)c(C)c1 too.
0

Check Cc1onc(-c2ccccc2Cl)c1C(=O)N(C)c1ccc(Cl)cc1 too.
21
